- TARGET ENTITY: STING (Homo sapiens, UniProt Q86WV6, G230A/H232R/R293Q/R71H)
- Construct: host or cells: THP-1 and THP-1 Lucia ISG cells
- Sequence (Q86WV6 whole entry R71H/G230A/H232R/R293Q): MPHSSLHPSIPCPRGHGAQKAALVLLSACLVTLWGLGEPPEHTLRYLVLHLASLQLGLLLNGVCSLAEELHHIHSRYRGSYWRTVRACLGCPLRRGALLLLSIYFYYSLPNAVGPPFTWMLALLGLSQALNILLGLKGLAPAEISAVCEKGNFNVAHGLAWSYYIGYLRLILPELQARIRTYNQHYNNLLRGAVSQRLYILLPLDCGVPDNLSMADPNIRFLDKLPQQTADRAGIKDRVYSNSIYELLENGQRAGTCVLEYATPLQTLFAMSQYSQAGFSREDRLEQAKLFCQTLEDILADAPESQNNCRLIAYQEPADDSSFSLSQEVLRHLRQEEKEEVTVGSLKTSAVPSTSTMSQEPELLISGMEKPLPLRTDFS
- PROCEDURE DETAILS: Phosphorylation of IRF3: THP-1 cell ELISA
- Assay type: cell-based
- APPLIED CONDITIONS: THP-1 cells, 3 hours incubation, phospho-IRF3 ELISA; read-out: THP-1 CELL P-IRF3 EC50
pEC50: −log10 of the molar value. Where a name gives a salt, the structure may show the parent alone.
pEC50 below 5 gives criterion not met; pEC50 at or above it gives criterion met.

1. CCn1nc(C)cc1-c1n[nH]c(-c2cc(C(N)=O)cc3c2cnn3CC(=O)O)n1 [Example P01] ... criterion not met
2. CCn1nc(C)cc1-c1nnc(-c2cc(C(N)=O)cc3c2cnn3CCN2CCC(OC)CC2)[nH]1 [YY11] ... criterion not met
3. CCn1nc(C)cc1-c1nc(-c2cc(C(N)=O)cc3c2cnn3C)nn1COP(=O)(O)O [Example N01] ... criterion not met
4. Cc1nn(CCCO)c(-c2nc(-c3cc(C(N)=O)cc4c3cnn4C)n[nH]2)c1F [Example C07] ... criterion met
5. CCn1nc(C)cc1-c1nnc(-c2cc(C(N)=O)cc3c2cnn3[C@@H]2CCNC2)[nH]1 [YY14] ... criterion not met
6. Cc1nn(CCC(=O)O)c(-c2n[nH]c(-c3cc(C(N)=O)cc4c3cnn4C)n2)c1F [YY06] ... criterion not met
7. CCn1nc(C)cc1-c1nc(-c2nc(C(N)=O)cc3c2cnn3C)c(C(C)N)s1 (racemic) [Compound W-7, trifluoroacetate] ... criterion met
8. CCn1nc(C)cc1-c1n[nH]c(-c2cc(C(N)=O)cc3c2cnn3C(C)CN2CCOCC2)n1 (stereo not shown) [Example D06] ... criterion not met
9. CCn1nc(C)cc1-c1nnc(-c2cc(C(N)=O)cc3c2cnn3CC[C@H](C)C2CCNCC2)[nH]1 (racemic) [YY18] ... criterion not met
10. CCn1nc(C)c(O)c1-c1nc(-c2nc(C(N)=O)cc3c2cnn3C)n(C)n1 [Example Q01] ... criterion met
11. CCn1nc(C)cc1-c1nnc(-c2cc(C(N)=O)cc3c2cnn3CCN(C)C)[nH]1 [YY04] ... criterion not met
12. CCn1nc(C)cc1-c1nc(-c2nc(C(N)=O)cc3c2cnn3C)n(CCCN)n1 [YY31] ... criterion not met
13. CCn1nc(C)cc1-c1nnc(-c2cc(C(N)=O)cc3c2cnn3CCCCC2CCNCC2)[nH]1 [YY15] ... criterion not met
14. CCn1nc(C)c(F)c1-c1nc(-c2nc(C(N)=O)cc3c2cnn3CC(CO)CO)n(C)n1 [Example Y01] ... criterion met

###

- TARGET ENTITY: STING (Homo sapiens, UniProt Q86WV6, G230A/H232R/R293Q/R71H)
- Construct: host or cells: THP-1 and THP-1 Lucia ISG cells
- PROCEDURE DETAILS: Interferon-β induction: THP-1 Lucia ISG reporter cell line
- Type: cell-based
- APPLIED CONDITIONS: THP-1 Lucia ISG cells, 24 hours incubation, luciferase reporter; read-out: THP-1 Lucia ISG Cells IFN-β EC50
Counter-ions that a name gives are not always drawn.
Param label: returns t when EC50 < 5 µM, returns f otherwise, including exact equality.

1) CCn1nc(C)cc1-c1n[nH]c(-c2nc(C(N)=O)cc3c2cnn3C)n1 ... t
2) CCn1nc(C)cc1-c1n[nH]c(-c2cc(C(N)=O)cc3c2cnn3CC)n1 ... f
3) CCn1nc(C)cc1-c1n[nH]c(-c2cc(C(N)=O)cc3c2cnn3CCN2C3CCC2COC3)n1 ... f
4) CCn1nc(C)cc1-c1n[nH]c(-c2cc(C(N)=O)cc3c2cnn3CC(=O)O)n1 ... f
5) CCn1nc(C)cc1-c1nc(-c2nc(C(N)=O)cc3c2cnn3C)n(C)n1 ... t
6) CCn1nc(C)cc1-c1n[nH]c(-c2cc(C(N)=O)cc3c2cnn3CCN2CC(F)C2)n1 [Example M01, trifluoroacetic acid salt] ... f
7) CCn1nc(C)c(O)c1-c1nc(-c2nc(C(N)=O)cc3c2cnn3C)n(C)n1 ... t
8) CCn1nc(C)cc1-c1n[nH]c(-c2cc(C(N)=O)cc3c2ccn3C)n1 ... f
9) Cc1nn(CCCO)c(-c2nc(-c3cc(C(N)=O)cc4c3cnn4C)n[nH]2)c1F ... t
10) CCn1nc(C)c(F)c1-c1nc(-c2cc(C(N)=O)cc3c2cnn3CCCN2CCOCC2)n[nH]1 ... f
11) CCn1nc(C)cc1-c1n[nH]c(-c2cc(C(N)=O)cc3c2cnn3CCN2CCC(F)(F)CC2)n1 ... f
12) CCn1nc(C)c(O)c1-c1n[nH]c(-c2nc(C(N)=O)cc3c2cnn3CCN2CC(F)C2)n1 ... f
13) Cc1nn(CCC(=O)O)c(-c2n[nH]c(-c3cc(C(N)=O)cc4c3cnn4C)n2)c1Cl ... f
14) CCn1nc(C)cc1-c1nnc(-c2cc(C(N)=O)cc3c2cc(C(=O)O)n3C)[nH]1 ... f
15) CCn1nc(C)cc1-c1n[nH]c(-c2cc(C(N)=O)cc3c2cnn3CCN(C)CC(F)(F)F)n1 [Example D05, formic acid salt] ... f
16) CCn1nc(C)cc1-c1nnc(-c2cc(C(N)=O)cc3c2cnn3CCC(=O)O)[nH]1 ... f
17) CCn1nc(C)cc1-c1csc(-c2cc(C(N)=O)cc3c2cnn3C)n1 ... f
18) CCn1nc(C)cc1-c1n[nH]c(-c2cc(C(N)=O)cc3c2cnn3CCN2CCNC(=O)C2)n1 ... f
19) CCn1nc(C)cc1-c1nnc(-c2cc(C(N)=O)cc3c2cnn3[C@@H]2CCNC2)[nH]1 ... f
20) CCn1nc(C)c(O)c1-c1nc(-c2nc(C(N)=O)cc3c2cnn3C)c(CN)s1 [Example X01, formate] ... t
21) CCn1nc(C)c(O)c1-c1n[nH]c(-c2nc(C(N)=O)cc3c2cnn3CCN2CCOCC2)n1 ... f
22) CCn1nc(C)cc1-c1nnc(-c2cc(C(N)=O)cc3c2cnn3CCN2CCC(OC)CC2)[nH]1 ... f
23) CCn1nc(C)cc1-c1n[nH]c(-c2cc(C(N)=O)cc3c2cnn3CCN2CCS(=O)(=O)CC2)n1 ... f
24) CCn1nc(C)cc1-c1nnc(-c2cc(C(N)=O)cc3c2cnn3CCN(C)C)[nH]1 ... f
25) CCn1nc(C)cc1-c1nc(-c2nc(C(N)=O)cc3c2cnn3C)c(C(C)N)s1 (single isomer, unassigned) [Example W01] ... f
26) CCn1nc(C)cc1-c1c[nH]c(-c2cc(C(N)=O)cc3c2cnn3C)n1 ... f
27) CCn1nc(C)cc1-c1n[nH]c(-c2cc(C(N)=O)cc3c(C)n[nH]c23)n1 ... t
28) CCn1nc(C)c(F)c1-c1c[nH]c(-c2cc(C(N)=O)cc3c2cnn3C)n1 ... t
